- Assay system: rat NTPDase1 (Rattus norvegicus)
- Sequence (P97687 whole entry): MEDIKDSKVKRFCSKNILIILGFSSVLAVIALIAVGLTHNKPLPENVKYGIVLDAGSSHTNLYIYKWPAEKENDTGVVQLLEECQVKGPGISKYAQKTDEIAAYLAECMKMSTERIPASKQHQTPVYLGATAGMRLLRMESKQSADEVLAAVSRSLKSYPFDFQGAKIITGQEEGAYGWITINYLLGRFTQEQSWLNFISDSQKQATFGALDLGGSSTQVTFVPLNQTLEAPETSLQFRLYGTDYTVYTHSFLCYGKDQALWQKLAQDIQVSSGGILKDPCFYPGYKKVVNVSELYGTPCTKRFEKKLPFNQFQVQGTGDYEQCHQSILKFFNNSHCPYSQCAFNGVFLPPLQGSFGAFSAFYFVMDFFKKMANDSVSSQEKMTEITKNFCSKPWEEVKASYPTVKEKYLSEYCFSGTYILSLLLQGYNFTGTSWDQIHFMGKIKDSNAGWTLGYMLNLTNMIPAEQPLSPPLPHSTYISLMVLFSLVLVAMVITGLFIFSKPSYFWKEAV
- Experiment summary: Inhibition of rat NTPDase1
- Condition summary: rat NTPDase1; 1 mM compound; ATP 400 μM
Marks after values point to notes of the source that are not given here.

# Query smiles, Assay system, percent inhibition at 1 mM NTPDase1
measured = [
    ("COc1ccccc1Nc1cc(S(=O)(=O)O)c(N)c2c1C(=O)c1ccccc1C2=O", "rat NTPDase1 (Rattus norvegicus)", "(57%)"),
    ("Cc1ccccc1Nc1cc(S(=O)(=O)O)c(N)c2c1C(=O)c1ccccc1C2=O", "rat NTPDase1 (Rattus norvegicus)", "(25%)"),
    ("CCOc1ccccc1Nc1cc(S(=O)(=O)O)c(N)c2c1C(=O)c1ccccc1C2=O", "rat NTPDase1 (Rattus norvegicus)", "(17%)"),
    ("CC(=O)Nc1ccc(Nc2cc(S(=O)(=O)O)c(N)c3c2C(=O)c2ccccc2C3=O)cc1", "rat NTPDase1 (Rattus norvegicus)", "(15%)"),
]

* * *

- Assay system: rat NTPDase2 (Rattus norvegicus, UniProt O35795)
- Sequence (O35795 1-495): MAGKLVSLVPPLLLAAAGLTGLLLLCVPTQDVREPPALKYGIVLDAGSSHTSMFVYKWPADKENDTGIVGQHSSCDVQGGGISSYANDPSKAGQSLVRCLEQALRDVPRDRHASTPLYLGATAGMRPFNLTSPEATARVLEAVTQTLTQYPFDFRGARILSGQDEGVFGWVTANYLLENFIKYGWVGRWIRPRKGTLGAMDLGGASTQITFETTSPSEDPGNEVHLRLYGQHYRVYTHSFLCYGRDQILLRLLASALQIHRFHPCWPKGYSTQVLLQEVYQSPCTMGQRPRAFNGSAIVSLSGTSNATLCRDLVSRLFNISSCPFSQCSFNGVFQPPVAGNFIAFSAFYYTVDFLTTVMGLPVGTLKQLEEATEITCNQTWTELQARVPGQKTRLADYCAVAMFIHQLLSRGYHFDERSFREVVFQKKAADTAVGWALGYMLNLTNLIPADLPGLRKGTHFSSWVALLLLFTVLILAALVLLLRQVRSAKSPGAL
Quantity kind: pKi
When answering, recall that pKi equals minus log10 of the concentration in mol/L, and write that number alone.

Inquiry: Tell me reported pKi for COc1ccc(CCNc2cc(S(=O)(=O)O)c(N)c3c2C(=O)c2ccccc2C3=O)cc1OC [Compound 22] , tested with rat NTPDase2 (Rattus norvegicus, UniProt O35795).
Reply text: 4.27

* * *

- Assay system: UniProtKB P97687
- Experiment summary: Inhibition of rat NTPDase1
- Condition summary: read-out: percent inhibition at 1 mM NTPDase1
Each item that follows carries a reported inhibition at 1000 µM.
Kindly provide the numeric value in % only, without the unit symbol.

Answered cases to consult:
# Query smiles, Assay system, Quantitative result
records = [
    ("Nc1c(S(=O)(=O)Oc2ccccc2[N+](=O)[O-])cc(Br)c2c1C(=O)c1ccccc1C2=O", "UniProtKB P97687", 0),
    ("COS(=O)(=O)c1cc(Br)c2c(c1N)C(=O)c1ccccc1C2=O", "UniProtKB P97687", 0),
    ("Cc1cc(Nc2cccc3ccccc23)c2c(c1N)C(=O)c1ccccc1C2=O", "UniProtKB P97687", 0),
    ("Nc1c(S(=O)(=O)[O-])cc(Nc2cccc3ccccc23)c2c1C(=O)c1ccccc1C2=O.[Na+]", "UniProtKB P97687", 0),
    ("Cc1cc(Nc2ccccc2)c2c(c1N)C(=O)c1ccccc1C2=O", "UniProtKB P97687", 0),
    ("Nc1c(S(=O)(=O)Nc2ccccc2)cc(Br)c2c1C(=O)c1ccccc1C2=O", "UniProtKB P97687", 0),
    ("Nc1c(S(=O)(=O)Oc2cccc([N+](=O)[O-])c2)cc(Br)c2c1C(=O)c1ccccc1C2=O", "UniProtKB P97687", 0),
]

Turning now to a further molecule:
Inquiry: Tell me reported inhibition at 1000 µM for Nc1c(S(=O)(=O)NCc2ccccc2)cc(Br)c2c1C(=O)c1ccccc1C2=O , tested with UniProtKB P97687.
Reply text: 0

* * *

- Assay system: rat NTPDase3 (Rattus norvegicus)
- Sequence (A6I415 1-529): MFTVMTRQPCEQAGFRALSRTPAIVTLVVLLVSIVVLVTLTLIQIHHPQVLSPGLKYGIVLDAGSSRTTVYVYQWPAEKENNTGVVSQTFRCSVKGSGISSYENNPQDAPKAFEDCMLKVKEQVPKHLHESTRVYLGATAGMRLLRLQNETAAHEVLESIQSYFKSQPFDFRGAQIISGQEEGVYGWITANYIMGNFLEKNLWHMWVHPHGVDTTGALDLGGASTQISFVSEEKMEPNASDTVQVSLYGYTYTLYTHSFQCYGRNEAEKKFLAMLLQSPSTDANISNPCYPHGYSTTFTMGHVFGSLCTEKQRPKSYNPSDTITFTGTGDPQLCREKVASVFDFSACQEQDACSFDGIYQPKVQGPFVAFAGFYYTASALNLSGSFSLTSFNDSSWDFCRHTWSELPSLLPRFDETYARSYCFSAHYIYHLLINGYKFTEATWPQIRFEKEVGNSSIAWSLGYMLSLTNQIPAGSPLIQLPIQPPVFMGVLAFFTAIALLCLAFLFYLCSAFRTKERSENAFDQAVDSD
- Experiment summary: Inhibition of rat NTPDase3
- Condition summary: read-out: percent inhibition at 1 mM NTPDase3
Quantity kind: inhibition at 1000 µM (%)
Kindly provide the numeric value in % only, without the unit symbol.

# Query smiles, Units of measure, inhibition at 1000 µM
measured = [
    ("Nc1c(S(=O)(=O)Nc2ccccc2)cc(Br)c2c1C(=O)c1ccccc1C2=O", "%", 0),
    ("Cc1cc(Nc2cccc3ccccc23)c2c(c1N)C(=O)c1ccccc1C2=O", "%", 0),
]

Turning now to a further compound:
Inquiry: Tell me reported inhibition at 1000 µM for Nc1c(S(=O)(=O)Oc2ccc([N+](=O)[O-])cc2)cc(Br)c2c1C(=O)c1ccccc1C2=O , tested with rat NTPDase3 (Rattus norvegicus).
Reply text: 0
